- Tested system: butyrylcholinesterase from equine serum (Equus caballus, UniProt P81908)
- Construct: butyrylcholinesterase from equine serum; purchased Sigma Aldrich, Milan, Italy; host or cells: equine serum
- Sequence (P81908 whole entry): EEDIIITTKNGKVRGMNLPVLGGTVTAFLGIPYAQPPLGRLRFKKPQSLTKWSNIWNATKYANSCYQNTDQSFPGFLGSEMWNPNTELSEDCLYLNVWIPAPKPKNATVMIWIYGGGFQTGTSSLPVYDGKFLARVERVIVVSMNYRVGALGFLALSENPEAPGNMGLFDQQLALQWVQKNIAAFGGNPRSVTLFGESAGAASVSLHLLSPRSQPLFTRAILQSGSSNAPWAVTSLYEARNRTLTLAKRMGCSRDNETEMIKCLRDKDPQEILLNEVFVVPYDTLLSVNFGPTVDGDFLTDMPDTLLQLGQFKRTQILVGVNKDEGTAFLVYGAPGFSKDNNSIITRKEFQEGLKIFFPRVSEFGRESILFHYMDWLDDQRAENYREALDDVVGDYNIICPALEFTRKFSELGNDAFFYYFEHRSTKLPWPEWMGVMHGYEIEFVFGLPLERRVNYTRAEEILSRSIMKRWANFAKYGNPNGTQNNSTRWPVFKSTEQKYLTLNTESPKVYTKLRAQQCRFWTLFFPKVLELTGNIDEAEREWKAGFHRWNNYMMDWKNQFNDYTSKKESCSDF
- Protocol notes: biochemical
- Assay type: biochemical
- Condition summary: read-out: BChE % inhibition at 10 μM
Recorded inhibition at 10 µM, one value per entry.
Give just the number in %; leave the unit off.

A selection of reference data follows.
Supply recorded inhibition at 10 µM for `CNCc1cc(=O)oc2cc(OCc3ccccc3)ccc12` here.
17

Supply recorded inhibition at 10 µM for `CNCc1cc(=O)oc2c(C)c(OCc3cccc(Cl)c3)ccc12` here.
46

Supply recorded inhibition at 10 µM for `O=c1cc(CN2CCOCC2)c2ccc(OCc3cccc(Cl)c3)cc2o1` here.
46

Others:
Supply recorded inhibition at 10 µM for `CNCc1cc(=O)oc2cc(OCc3cccc(Cl)c3)ccc12` here.
43

Supply recorded inhibition at 10 µM for `NC(=O)CNCc1cc(=O)oc2cc(OCc3cccc(Cl)c3)ccc12` here.
13

Supply recorded inhibition at 10 µM for `CNCc1cc(=O)oc2cc(OCc3cccc(Cl)c3)c(C)cc12` here.
48.1

---

- Tested system: butyrylcholinesterase from equine serum (Equus caballus)
- Construct: butyrylcholinesterase from equine serum
- Protocol notes: biochemical
- Condition summary: BChE from equine serum; mean ±SEM of three
Cut-off 5 µM on IC50: below means YES, at or above means NO.

Consider the worked cases shown below.
Does the reported IC50 of CNCc1cc(=O)oc2cc(OCc3cccc(Br)c3)ccc12 [compound 8] stay below 5 µM?
YES

Does the reported IC50 of CCCCNCc1cc(=O)oc2cc(OCc3cccc(Cl)c3)ccc12 [compound 21] stay below 5 µM?
YES

Does the reported IC50 of CN1CCN(Cc2cc(=O)oc3cc(OCc4cccc(Cl)c4)ccc23)CC1 [compound 16] stay below 5 µM?
YES

Others:
Does the reported IC50 of CNCc1cc(=O)oc2cc(OCc3ccc4c(c3)OCO4)ccc12 [compound 6] stay below 5 µM?
YES

Does the reported IC50 of CNCc1cc(=O)oc2cc(OCc3cccc(F)c3)ccc12 [compound 9] stay below 5 µM?
YES

Does the reported IC50 of CCCNCc1cc(=O)oc2cc(OCc3cccc(Cl)c3)ccc12 [compound 20] stay below 5 µM?
YES

---

- Tested system: human recombinant MAO B (Homo sapiens)
- Construct: purchased Sigma Aldrich, Milan, Italy
- Sequence (P27338 whole entry): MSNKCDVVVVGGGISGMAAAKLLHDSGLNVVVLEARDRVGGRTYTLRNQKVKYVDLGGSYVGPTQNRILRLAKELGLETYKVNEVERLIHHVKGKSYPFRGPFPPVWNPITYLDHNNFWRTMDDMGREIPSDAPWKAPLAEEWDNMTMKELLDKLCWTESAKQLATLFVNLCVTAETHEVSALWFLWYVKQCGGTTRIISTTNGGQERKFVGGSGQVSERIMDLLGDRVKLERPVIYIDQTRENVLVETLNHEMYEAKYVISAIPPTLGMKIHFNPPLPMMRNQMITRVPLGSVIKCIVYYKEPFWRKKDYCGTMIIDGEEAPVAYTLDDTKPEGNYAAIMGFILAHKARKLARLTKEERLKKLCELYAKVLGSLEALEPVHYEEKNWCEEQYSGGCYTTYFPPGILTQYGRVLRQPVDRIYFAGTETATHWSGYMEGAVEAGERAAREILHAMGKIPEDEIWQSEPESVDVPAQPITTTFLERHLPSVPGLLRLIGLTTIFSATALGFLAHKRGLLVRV
- Protocol notes: Human recombinant MAO B inhibition (kynuramine fluorescence)
- Format: biochemical
- Condition summary: human recombinant MAO; mean ±SEM of three independent experiments; read-out: MAO B IC50
Measured metric: pIC50
Bear in mind: pIC50 is minus log10 of a mol/L concentration; give just that figure.

A selection of reference data follows.
Give pIC50 for `CNCc1cc(=O)oc2cc(OCc3cc(OC)cc(OC)c3)ccc12` tested on human recombinant MAO B (Homo sapiens).
7.17

Give pIC50 for `O=c1cc(CNCc2ccccc2)c2ccc(OCc3cccc(Cl)c3)cc2o1` tested on human recombinant MAO B (Homo sapiens).
6.99

Give pIC50 for `CCCCNCc1cc(=O)oc2cc(OCc3cccc(Cl)c3)ccc12` tested on human recombinant MAO B (Homo sapiens).
6.79

Give pIC50 for `NCc1cc(=O)oc2cc(OCc3cccc(Cl)c3)ccc12` tested on human recombinant MAO B (Homo sapiens).
7.18

Give pIC50 for `O=c1cc(CN2CCCC2)c2ccc(OCc3cccc(Cl)c3)cc2o1` tested on human recombinant MAO B (Homo sapiens).
6.82

Now turn to the next compound.
Give pIC50 for `NC(=O)CNCc1cc(=O)oc2cc(OCc3cccc(Cl)c3)ccc12` tested on human recombinant MAO B (Homo sapiens).
7.21

---

- Tested system: human recombinant MAO A (Homo sapiens, UniProt P21397)
- Construct: purchased Sigma Aldrich, Milan, Italy
- Sequence (P21397 whole entry): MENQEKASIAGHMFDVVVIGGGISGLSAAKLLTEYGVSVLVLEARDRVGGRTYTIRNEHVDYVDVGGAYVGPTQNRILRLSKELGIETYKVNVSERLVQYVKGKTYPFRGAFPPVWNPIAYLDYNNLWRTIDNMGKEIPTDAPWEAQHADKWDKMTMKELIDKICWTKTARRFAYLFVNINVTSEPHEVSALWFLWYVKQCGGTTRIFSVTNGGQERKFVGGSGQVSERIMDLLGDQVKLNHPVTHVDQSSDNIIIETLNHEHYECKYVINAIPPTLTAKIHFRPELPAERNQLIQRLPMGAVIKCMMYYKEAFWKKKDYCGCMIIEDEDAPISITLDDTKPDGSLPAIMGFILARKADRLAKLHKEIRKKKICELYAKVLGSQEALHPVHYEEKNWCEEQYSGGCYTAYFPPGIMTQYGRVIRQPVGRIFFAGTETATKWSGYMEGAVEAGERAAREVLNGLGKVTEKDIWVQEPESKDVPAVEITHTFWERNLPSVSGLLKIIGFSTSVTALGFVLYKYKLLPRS
- Protocol notes: biochemical
- Condition summary: human recombinant MAO; mean ±SEM of three independent experiments; read-out: MAO A IC50
Recorded pIC50, one value per entry.
Bear in mind: pIC50 is minus log10 of a mol/L concentration; give just that figure.

A selection of reference data follows.
Supply recorded pIC50 for `CNCc1cc(=O)oc2cc(OCc3cc(OC)cc(OC)c3)ccc12` here.
6.00

Supply recorded pIC50 for `CNCc1cc(=O)oc2cc(OCc3ccc4c(c3)OCO4)ccc12` here.
5.92

Others:
Supply recorded pIC50 for `O=c1cc(CN2CCCC2)c2ccc(OCc3cccc(Cl)c3)cc2o1` here.
5.95

Supply recorded pIC50 for `CNCc1cc(=O)oc2c(C)c(OCc3cccc(Cl)c3)ccc12` here.
6.00

---

Recorded pIC50, one value per entry.
- Tested system: butyrylcholinesterase from equine serum (Equus caballus)
- Construct: butyrylcholinesterase from equine serum
- Protocol notes: biochemical
- Condition summary: BChE from equine serum; mean ±SEM of three
Bear in mind: pIC50 is minus log10 of a mol/L concentration; give just that figure.

Give pIC50 for `CN(C)Cc1cc(=O)oc2cc(OCc3cccc(Cl)c3)ccc12` tested on butyrylcholinesterase from equine serum (Equus caballus).
5.15

Give pIC50 for `CN(Cc1ccccc1)Cc1cc(=O)oc2cc(OCc3cccc(Cl)c3)ccc12` tested on butyrylcholinesterase from equine serum (Equus caballus).
5.20

Give pIC50 for `O=c1cc(CNCc2ccccc2)c2ccc(OCc3cccc(Cl)c3)cc2o1` tested on butyrylcholinesterase from equine serum (Equus caballus).
5.47

---

Recorded pIC50, one value per entry.
- Tested system: human recombinant MAO A (Homo sapiens, UniProt P21397)
- Construct: purchased Sigma Aldrich, Milan, Italy
- Protocol notes: biochemical
- Condition summary: human recombinant MAO; mean ±SEM of three independent experiments; read-out: MAO A IC50
Bear in mind: pIC50 is minus log10 of a mol/L concentration; give just that figure.

A selection of reference data follows.
Supply recorded pIC50 for CNCc1cc(=O)oc2cc(OCc3cccc(Br)c3)ccc12 [compound 8] here.
5.64

Supply recorded pIC50 for COc1cc(COc2ccc3c(CNCC(N)=O)cc(=O)oc3c2)cc(OC)c1 [compound 27] here.
5.23

Supply recorded pIC50 for CN(C)Cc1cc(=O)oc2cc(OCc3cccc(Cl)c3)ccc12 [compound 19] here.
5.04

Supply recorded pIC50 for CNCc1cc(=O)oc2cc(OCc3cccc(F)c3)ccc12 [compound 9] here.
5.76

Now turn to the next molecule.
Supply recorded pIC50 for C#CCNCc1cc(=O)oc2cc(OCc3cccc(Cl)c3)ccc12 [compound 22] here.
5.96
